testedSystem: UniProtKB P31652
runDescription: Displacement of [3H]-citalopram from SERT in rat cortical membranes at 10 uM after 60 mins
Type: cell membranes
reportedConditions: Membrane
Active and inactive are the calls of the source. The rule behind the calls is not given here.
metricName: inhibition

Use the examples below as a reference point.
q: For the compound `CCOC1=NO[C@]2(C1)C[C@H]1CC[C@@H](C2)[N+]1(C)C` , give its measured inhibition value.
a: inactive

q: For the compound `COC1=NO[C@]2(C1)C[C@H]1CC[C@@H](C2)N1C` , give its measured inhibition value.
a: inactive

q: For the compound `CCOC(=O)C1=NO[C@]2(C1)C[C@H]1CC[C@@H](C2)[N+]1(C)C` , give its measured inhibition value.
a: inactive

q: For the compound `CCOC1=NO[C@]2(C1)C[C@H]1CC[C@@H](C2)N1` , give its measured inhibition value.
a: inactive

q: For the compound `C#CCOC1=NO[C@]2(C1)C[C@H]1CC[C@@H](C2)N1` , give its measured inhibition value.
a: inactive

Others:
q: For the compound `C[N+]1(C)[C@@H]2CC[C@H]1C[C@@]1(CC(Br)=NO1)C2` , give its measured inhibition value.
a: inactive

q: For the compound `C[N+]1(C)[C@@H]2CC[C@H]1C[C@@]1(CC(CO)=NO1)C2` , give its measured inhibition value.
a: inactive

q: For the compound `C#CCOC1=NO[C@]2(C1)C[C@H]1CC[C@@H](C2)N1C` , give its measured inhibition value.
a: inactive

====

testedSystem: Sodium-dependent serotonin transporter (Rattus norvegicus)
Sequence (P31652 whole entry): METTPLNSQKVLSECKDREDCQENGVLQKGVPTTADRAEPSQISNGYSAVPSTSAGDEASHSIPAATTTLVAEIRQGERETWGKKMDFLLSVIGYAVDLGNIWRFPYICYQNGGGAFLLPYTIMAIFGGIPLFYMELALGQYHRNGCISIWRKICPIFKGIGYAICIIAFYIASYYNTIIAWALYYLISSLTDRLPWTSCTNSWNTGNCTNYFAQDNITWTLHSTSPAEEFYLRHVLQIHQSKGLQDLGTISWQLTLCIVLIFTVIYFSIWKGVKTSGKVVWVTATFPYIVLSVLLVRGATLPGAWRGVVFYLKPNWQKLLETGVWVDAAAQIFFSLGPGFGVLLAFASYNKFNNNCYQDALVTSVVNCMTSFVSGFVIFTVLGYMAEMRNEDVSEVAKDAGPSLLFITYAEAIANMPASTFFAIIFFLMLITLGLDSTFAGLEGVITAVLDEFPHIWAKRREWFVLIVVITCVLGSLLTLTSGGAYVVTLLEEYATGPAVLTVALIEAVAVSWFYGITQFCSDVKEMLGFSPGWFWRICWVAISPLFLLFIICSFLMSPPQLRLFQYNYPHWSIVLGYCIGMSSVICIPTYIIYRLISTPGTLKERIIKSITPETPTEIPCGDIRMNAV
runDescription: Displacement of [3H]-citalopram from SERT in rat cortical membranes after 60 mins
metricName: IC50 (µM)
Numbers only here, please. The scale is µM.

q: For the compound `CN1O[C@]2(CC1=O)C[C@H]1CC[C@@H](C2)N1` , give its measured IC50 value.
a: 5

Data credit: ChEMBL document CHEMBL2157862
